Vd: recorded values
- run.description: Volume of distribution in Sprague-Dawley rat at 1 mg/kg, iv
- Assay type: ADME, organism-based
- condition.context: in vivo

Here is how some molecules turned out for Vd.
[
  {
    "molecule": "CN1C(=O)c2c(nn(Cc3ccc(-c4cccc(F)n4)cc3)c2Nc2ccccc2)N2C1=N[C@@H]1CCC[C@@H]12.O=P(O)(O)O [LENRISPODUN PHOSPHATE]",
    "Vd": "6.83 L/kg"
  },
  {
    "molecule": "CN1C(=O)c2c(nn(Cc3ccc(-c4ccccn4)cc3)c2Nc2ccccc2)N2C1=N[C@@H]1CCC[C@@H]12",
    "Vd": "2.48 L/kg"
  },
  {
    "molecule": "CN1C(=O)c2c(nn(Cc3ccc(C(F)(F)F)cc3)c2Nc2ccccc2)N2C1=N[C@@H]1CCC[C@@H]12",
    "Vd": "7.44 L/kg"
  }
]

Turning now to a further molecule:
Reported Vd, molecule CN1C(=O)c2c(nn(Cc3ccc(C(F)(F)F)cc3)c2Nc2ccc(F)cc2)N2C1=N[C@@H]1CCC[C@@H]12 : ____
7.48 L/kg

----------
- run.description: AUClast in C57BL/6 mouse plasma at 10 mg/kg administered through oral gavage
- Assay type: ADME, organism-based
- Set-up: dose 10 mg/kg, time 0 - last, route oral
readout: AUC(0-t) (ng·h/mL)
Numbers only here, please. The scale is ng·h/mL.

[
  {
    "structure.notation": "CN1C(=O)c2c(nn(Cc3ccc(-c4ccccc4)cc3)c2Nc2ccccc2)N2C1=N[C@@H]1CCC[C@@H]12",
    "readout.number": 286
  },
  {
    "structure.notation": "CN1C(=O)c2c(nn(Cc3ccc(S(N)(=O)=O)cc3)c2Nc2ccccc2)N2C1=N[C@@H]1CCC[C@@H]12",
    "readout.number": 785
  },
  {
    "structure.notation": "CN1C(=O)c2c(nn(Cc3ccc(-c4cccc(F)n4)cc3)c2Cc2ccccc2)N2C1=N[C@@H]1CCC[C@@H]12",
    "readout.number": 134
  }
]

Turning now to a further molecule:
Reported AUC(0-t), molecule CN1C(=O)c2c(nn(Cc3ccc(-c4ccccn4)cc3)c2Nc2ccccc2)N2C1=N[C@@H]1CCC[C@@H]12 : ____
65

----------
- run.description: Inhibition of bovine brain PDE1 using fluorescent labeled cGMP as substrate after 15 mins by IMAP assay
- Design: species or system Bos taurus
pKi: −log10 of the molar value.
Tick 1 if pKi is 8 or greater. Tick -1 if pKi is less than 8.

The examples below pair each entry with its known result.
[
  {
    "compound": "CN1C(=O)c2c(nn(Cc3ccc(-c4ccccc4)cc3)c2Nc2ccccc2)N2C[C@@H](Cc3ccccc3)N=C12",
    "class": -1
  },
  {
    "compound": "CN1C(=O)c2c(nn(Cc3ccc(-c4cccc(F)n4)cc3)c2Nc2ccccc2)N2C1=N[C@H]1CCC[C@H]12",
    "class": 1
  },
  {
    "compound": "CN1C(=O)c2c(nn(Cc3ccc(-c4cccc(F)n4)cc3)c2NC2CCCCC2)N2C1=N[C@@H]1CCC[C@@H]12",
    "class": 1
  }
]

Record CN1C(=O)c2c(nn(Cc3ccc(C4CCCN4C)cc3)c2Nc2ccccc2)N2C1=N[C@@H]1CCC[C@@H]12 (stereo not given in full) ; criterion: pKi no lower than 8. Met?
1

Record CN1C(=O)c2c(nn(Cc3ccc(-c4cccc(F)n4)cc3)c2N(C)C)N2C1=N[C@@H]1CCC[C@@H]12 ; criterion: pKi no lower than 8. Met?
-1

Record CN1C(=O)c2c(nn(Cc3ccc(C(F)(F)F)cc3)c2Nc2ccccc2)N2C1=N[C@@H]1CCC[C@@H]12 ; criterion: pKi no lower than 8. Met?
1

Record CN1C(=O)c2c(nn(Cc3ccc(-c4cccc(F)n4)cc3)c2N)N2C1=N[C@@H]1CCC[C@@H]12 ; criterion: pKi no lower than 8. Met?
1

Record CN1C(=O)c2c(nn(Cc3ccc(-c4cccc(F)n4)cc3)c2Nc2ccccc2)N2C1=N[C@@H]1CCC[C@@H]12.O=P(O)(O)O [LENRISPODUN PHOSPHATE] ; criterion: pKi no lower than 8. Met?
1

Record CN1C(=O)c2c(nn(Cc3ccc(-c4cccc(F)n4)cc3)c2NCc2ccccc2)N2C1=N[C@@H]1CCC[C@@H]12 ; criterion: pKi no lower than 8. Met?
1

Record CN1C(=O)c2c(nn(Cc3ccc(-c4ccccc4)cc3)c2Nc2ccccc2)N2C[C@@H](COCc3ccccc3)N=C12 ; criterion: pKi no lower than 8. Met?
-1

Record CN1C(=O)c2c(nn(Cc3ccc(-c4cccc(F)n4)cc3)c2Cc2ccccc2)N2C1=N[C@@H]1CCC[C@@H]12 ; criterion: pKi no lower than 8. Met?
1

Record CN1C(=O)c2c(nn(Cc3ccc(-c4cc(F)ccn4)cc3)c2Nc2ccccc2)N2C1=N[C@@H]1CCC[C@@H]12 ; criterion: pKi no lower than 8. Met?
1

----------
- assayed.target: 3',5'-cyclic-AMP phosphodiesterase 4A (Homo sapiens)
- Sequence (P27815 whole entry): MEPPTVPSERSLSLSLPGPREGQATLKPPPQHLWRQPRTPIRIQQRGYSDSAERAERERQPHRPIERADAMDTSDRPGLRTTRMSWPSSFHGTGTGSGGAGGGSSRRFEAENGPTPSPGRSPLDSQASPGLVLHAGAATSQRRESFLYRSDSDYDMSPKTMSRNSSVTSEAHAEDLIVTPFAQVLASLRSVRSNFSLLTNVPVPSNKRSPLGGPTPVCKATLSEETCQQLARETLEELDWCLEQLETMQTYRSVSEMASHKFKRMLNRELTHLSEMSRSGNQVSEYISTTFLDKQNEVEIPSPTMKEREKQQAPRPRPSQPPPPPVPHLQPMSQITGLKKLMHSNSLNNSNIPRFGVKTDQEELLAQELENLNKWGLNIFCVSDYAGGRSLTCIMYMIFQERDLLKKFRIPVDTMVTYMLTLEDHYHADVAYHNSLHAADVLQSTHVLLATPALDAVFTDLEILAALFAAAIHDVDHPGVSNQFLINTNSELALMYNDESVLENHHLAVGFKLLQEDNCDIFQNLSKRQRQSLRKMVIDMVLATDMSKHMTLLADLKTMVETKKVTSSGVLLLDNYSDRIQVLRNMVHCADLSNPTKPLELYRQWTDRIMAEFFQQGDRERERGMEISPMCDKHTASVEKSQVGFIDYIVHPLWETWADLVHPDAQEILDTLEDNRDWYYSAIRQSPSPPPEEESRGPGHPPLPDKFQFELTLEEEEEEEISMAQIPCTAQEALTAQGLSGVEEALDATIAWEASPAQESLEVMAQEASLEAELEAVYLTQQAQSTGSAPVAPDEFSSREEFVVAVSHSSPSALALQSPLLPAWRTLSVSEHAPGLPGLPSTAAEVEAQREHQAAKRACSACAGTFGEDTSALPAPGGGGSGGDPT
- run.description: Inhibition of recombinant full lenght human PDE4A using fluorescent labeled cAMP as substrate after 15 mins by IMAP assay
Binary call on Ki with cut-off 2000 nM: strictly below means YES, and equality or higher means NO.

The examples below pair each entry with its known result.
[
  {
    "structure.notation": "CN1C(=O)c2c(nn(Cc3ccc(-c4cccc(F)n4)cc3)c2N)N2C1=N[C@@H]1CCC[C@@H]12",
    "assayed.target": "3',5'-cyclic-AMP phosphodiesterase 4A (Homo sapiens)",
    "class": "NO"
  },
  {
    "structure.notation": "CN1C(=O)c2c(nn(Cc3ccc(-c4cc(F)ccn4)cc3)c2Nc2ccccc2)N2C1=N[C@@H]1CCC[C@@H]12",
    "assayed.target": "3',5'-cyclic-AMP phosphodiesterase 4A (Homo sapiens)",
    "class": "YES"
  },
  {
    "structure.notation": "CC(C)[C@@H]1CN2C(=N1)N(C)C(=O)c1c2nn(Cc2ccc(-c3ccccc3)cc2)c1Nc1ccccc1",
    "assayed.target": "3',5'-cyclic-AMP phosphodiesterase 4A (Homo sapiens)",
    "class": "YES"
  },
  {
    "structure.notation": "CN1C(=O)c2c(nn(Cc3ccc(-c4ccccc4)cc3)c2Nc2ccccc2)N2CCCN=C12",
    "assayed.target": "3',5'-cyclic-AMP phosphodiesterase 4A (Homo sapiens)",
    "class": "NO"
  },
  {
    "structure.notation": "CN1Cc2c(nn(Cc3ccc(C(F)(F)F)cc3)c2Nc2ccccc2)N2C1=N[C@@H]1CCC[C@@H]12",
    "assayed.target": "3',5'-cyclic-AMP phosphodiesterase 4A (Homo sapiens)",
    "class": "NO"
  }
]

Find out if reported Ki for CNc1c2c(nn1Cc1ccc(-c3cccc(F)n3)cc1)N1C(=N[C@@H]3CCC[C@@H]31)N(C)C2=O is less than 2000 nM
NO

Find out if reported Ki for CN1C(=O)c2c(nn(Cc3ccc(-c4ccccn4)cc3)c2Nc2ccccc2)N2C1=N[C@@H]1CCC[C@@H]12 is less than 2000 nM
YES

Find out if reported Ki for CN1C(=O)c2c(nn(Cc3ccc(C(F)(F)F)cc3)c2Nc2ccccc2)N2C1=N[C@@H]1CCC[C@@H]12 is less than 2000 nM
YES

----------
- assayed.target: cAMP and cAMP-inhibited cGMP 3',5'-cyclic phosphodiesterase 10A (Homo sapiens, UniProt Q9Y233)
- Sequence (Q9Y233 whole entry): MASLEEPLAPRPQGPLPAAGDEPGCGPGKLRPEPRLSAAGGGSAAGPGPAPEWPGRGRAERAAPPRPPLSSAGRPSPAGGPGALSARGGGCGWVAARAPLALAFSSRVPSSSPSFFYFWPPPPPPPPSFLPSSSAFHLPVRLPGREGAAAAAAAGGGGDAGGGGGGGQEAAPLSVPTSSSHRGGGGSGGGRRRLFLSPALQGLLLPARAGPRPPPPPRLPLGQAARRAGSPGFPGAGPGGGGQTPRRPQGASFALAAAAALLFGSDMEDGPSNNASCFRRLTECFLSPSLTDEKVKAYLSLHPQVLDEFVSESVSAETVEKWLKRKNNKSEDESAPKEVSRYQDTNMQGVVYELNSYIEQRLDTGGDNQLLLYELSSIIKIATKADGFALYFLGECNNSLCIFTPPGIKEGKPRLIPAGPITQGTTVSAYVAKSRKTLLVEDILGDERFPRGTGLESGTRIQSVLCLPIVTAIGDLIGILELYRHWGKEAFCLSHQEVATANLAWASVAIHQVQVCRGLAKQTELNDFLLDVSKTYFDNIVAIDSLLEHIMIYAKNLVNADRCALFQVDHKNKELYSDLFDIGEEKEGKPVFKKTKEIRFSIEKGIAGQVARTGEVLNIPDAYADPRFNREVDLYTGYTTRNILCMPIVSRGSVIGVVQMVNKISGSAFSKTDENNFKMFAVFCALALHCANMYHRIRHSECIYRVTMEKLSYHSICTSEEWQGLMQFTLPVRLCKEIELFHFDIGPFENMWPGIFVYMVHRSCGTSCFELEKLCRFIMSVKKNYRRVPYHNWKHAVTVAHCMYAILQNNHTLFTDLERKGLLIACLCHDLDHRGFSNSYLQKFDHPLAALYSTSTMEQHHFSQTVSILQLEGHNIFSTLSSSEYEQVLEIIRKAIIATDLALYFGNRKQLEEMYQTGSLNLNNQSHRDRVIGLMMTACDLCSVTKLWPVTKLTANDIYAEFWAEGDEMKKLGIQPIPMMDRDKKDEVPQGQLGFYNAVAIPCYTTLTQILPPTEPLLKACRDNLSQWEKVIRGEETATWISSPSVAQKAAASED
- run.description: Inhibition of recombinant full lenght human PDE10A using fluorescent labeled cAMP as substrate after 15 mins by IMAP assay
readout: Ki (µM)
Numbers only here, please. The scale is µM.

Here is how some compounds turned out for Ki.
[
  {
    "structure.notation": "CN1C(=O)c2c(nn(Cc3ccc(-c4ccccc4)cc3)c2Nc2ccccc2)N2C1=N[C@@H]1CCC[C@@H]12",
    "Ki (µM)": 7.9
  },
  {
    "structure.notation": "CN1C(=O)c2c(nn(Cc3ccc(C(F)(F)F)cc3)c2Nc2ccccc2)N2C1=N[C@@H]1CCC[C@@H]12",
    "Ki (µM)": 5.4
  },
  {
    "structure.notation": "CN1C(=O)c2c(nn(Cc3ccc(C(F)(F)F)nc3)c2Nc2ccccc2)N2C1=N[C@@H]1CCC[C@@H]12",
    "Ki (µM)": 19
  }
]

Turning now to a further compound:
Reported Ki, compound CN1C(=O)c2c(nn(Cc3ccc(-c4ccccn4)cc3)c2Nc2ccccc2)N2C1=N[C@@H]1CCC[C@@H]12 : ____
2.7

----------
- assayed.target: High affinity cAMP-specific and IBMX-insensitive 3',5'-cyclic phosphodiesterase 8A (Homo sapiens, UniProt O60658)
- Sequence (O60658 whole entry): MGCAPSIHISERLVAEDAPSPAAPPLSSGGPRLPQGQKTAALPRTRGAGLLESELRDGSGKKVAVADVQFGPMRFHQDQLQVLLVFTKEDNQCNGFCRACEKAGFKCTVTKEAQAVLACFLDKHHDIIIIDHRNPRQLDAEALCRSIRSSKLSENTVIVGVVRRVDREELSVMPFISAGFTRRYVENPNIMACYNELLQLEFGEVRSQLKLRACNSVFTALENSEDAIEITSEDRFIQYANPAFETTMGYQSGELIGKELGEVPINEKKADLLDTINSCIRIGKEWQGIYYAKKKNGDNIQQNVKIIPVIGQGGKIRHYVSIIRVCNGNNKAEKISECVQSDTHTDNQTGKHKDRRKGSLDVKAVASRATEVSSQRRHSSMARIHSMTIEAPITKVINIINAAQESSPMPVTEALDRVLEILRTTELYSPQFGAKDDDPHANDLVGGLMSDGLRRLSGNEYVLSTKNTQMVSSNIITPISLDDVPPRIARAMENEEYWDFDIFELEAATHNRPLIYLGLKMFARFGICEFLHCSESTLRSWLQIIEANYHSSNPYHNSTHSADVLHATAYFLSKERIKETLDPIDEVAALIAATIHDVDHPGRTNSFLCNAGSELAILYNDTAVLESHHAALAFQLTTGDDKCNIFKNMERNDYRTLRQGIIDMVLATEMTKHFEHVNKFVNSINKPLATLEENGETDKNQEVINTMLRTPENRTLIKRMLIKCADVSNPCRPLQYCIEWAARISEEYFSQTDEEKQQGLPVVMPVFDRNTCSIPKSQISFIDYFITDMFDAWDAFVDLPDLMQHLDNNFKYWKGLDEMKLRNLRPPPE
- run.description: Inhibition of recombinant full lenght human PDE8A using fluorescent labeled cAMP as substrate after 15 mins by IMAP assay
readout: pKi
To interpret pKi, take it as minus log10 of a concentration measured in moles per litre.

[
  {
    "structure.notation": "CN1C(=O)c2c(nn(Cc3ccc(-c4ccccc4)cc3)c2Nc2ccccc2)N2C1=N[C@@H]1CCC[C@@H]12",
    "pKi": 4.48
  },
  {
    "structure.notation": "CN1C(=O)c2c(nn(Cc3ccc(C(F)(F)F)cc3)c2Nc2ccccc2)N2C1=N[C@@H]1CCC[C@@H]12",
    "pKi": 4.27
  }
]

Reported pKi, molecule CN1C(=O)c2c(nn(Cc3ccc(-c4ccccn4)cc3)c2Nc2ccccc2)N2C1=N[C@@H]1CCC[C@@H]12 : ____
5.09
